Assay: Cmax in human at 100 ug, po
Type: ADME
Set-up: dose 100 ug, route oral
Settings: in vivo
readout.type: Cmax (ng/mL)
Reply numerically in ng/mL, unit not repeated.

Answered cases to consult:
structure.notation	Cmax (ng/mL)
Nc1[nH]ncc1-c1cc(Cl)ccc1Oc1cc(F)c(S(=O)(=O)Nc2cscn2)cc1Cl	11
CCN1CC(n2nccc2-c2cc(Cl)ccc2Oc2ccc(S(=O)(=O)Nc3cscn3)cc2C#N)C1	0.67

For the next question, use this compound.
Task: Cmax lookup needed for `O=S(=O)(Nc1nncs1)c1cc(Cl)c(Oc2ccc(C(F)(F)F)cc2-c2ccnnc2)cc1F` , thanks.
Result: 4.8
